- TARGET_OF_ASSAY: Protein phosphatase EYA2 (Homo sapiens) (UniProt O00167)
- Sequence (O00167 whole entry, looked up): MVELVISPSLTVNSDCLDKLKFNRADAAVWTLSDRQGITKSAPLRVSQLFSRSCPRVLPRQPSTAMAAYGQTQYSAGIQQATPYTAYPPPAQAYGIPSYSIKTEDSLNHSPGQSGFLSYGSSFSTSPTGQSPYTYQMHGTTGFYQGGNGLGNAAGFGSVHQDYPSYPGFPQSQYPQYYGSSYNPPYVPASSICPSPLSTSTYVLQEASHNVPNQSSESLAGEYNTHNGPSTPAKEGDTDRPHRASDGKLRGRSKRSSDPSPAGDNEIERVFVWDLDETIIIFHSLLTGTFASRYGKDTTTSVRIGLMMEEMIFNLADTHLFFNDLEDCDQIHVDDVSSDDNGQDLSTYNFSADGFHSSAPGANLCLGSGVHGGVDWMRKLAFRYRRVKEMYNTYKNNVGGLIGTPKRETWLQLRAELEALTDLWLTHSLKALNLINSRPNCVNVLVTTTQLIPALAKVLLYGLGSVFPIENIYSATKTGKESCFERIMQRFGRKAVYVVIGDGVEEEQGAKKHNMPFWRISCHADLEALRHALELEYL
- ASSAY_NOTES: qHTS for Inhibitors of the Phosphatase Activity of Eya2: Confirmatory Assay for Cherry-picked Compounds; further: nearly all actives have a fitted effect of over 65% in size
- CONDITION_DETAILS: purified EYA2 phosphatase activity, qHTS confirmation; series mostly up to 46.1 µM
Out of some 1,300 compounds screened, about 460 (35%) were called active. About 39% were inconclusive and are not listed. The call rests on the fitted dose curve; in most records, active means well fitted inhibition curve with a large enough effect; inconclusive means small, poorly fitted or top-dose-only effect; inactive means flat fitted curve, though single readings scatter. Some of the results follow.
Use one of these outcomes when replying: active, inactive

[ask] # lookup: test call for CCOC(=O)NNc1nncc2ccccc12
[reply] inactive

[ask] # lookup: test call for CN(C)c1ccc(C=C2c3ccccc3-c3ccccc32)cc1
[reply] active

[ask] # lookup: test call for Cc1cc2nc(/N=C(\N)NC(=O)N3c4ccccc4Sc4ccccc43)nc(C)c2cc1C
[reply] inactive

[ask] # lookup: test call for CCc1ccc2[nH]c3nc(SCC(=O)NCC4CCCO4)nnc3c2c1 (stereo unspecified)
[reply] active

[ask] # lookup: test call for CN(C)c1ccc(/C=C2\C(Cl)=Cc3ccccc32)cc1
[reply] active

[ask] # lookup: test call for CCCc1nc(N2CCN(C)CC2)c2sc(=S)n(-c3ccccc3)c2n1
[reply] inactive

[ask] # lookup: test call for C[n+]1ccc(/C=C/c2cc[n+](C)c3ccccc23)c2ccccc21
[reply] active

[ask] # lookup: test call for O=C(N[C@@H]1CC[C@H](CCn2cc(-c3ccccn3)nn2)O[C@@H]1CO)c1ccncc1
[reply] active

[ask] # lookup: test call for Cc1cccc(C#Cc2ccccc2)n1
[reply] inactive

[ask] # lookup: test call for COc1ccc2c(c1)C=C/C2=C\c1ccc(N(C)C)cc1
[reply] active

[ask] # lookup: test call for Cc1nnc2sc(SCC(=O)Nc3ccc(Br)cc3)nn2c1=O
[reply] active

[ask] # lookup: test call for NC(=O)c1ccc(-c2nnc(Nc3ccc(S(N)(=O)=O)cc3)c3ccccc23)cc1
[reply] active

[ask] # lookup: test call for CN(C)CCNc1ccc2ncn3c4ccc(O)cc4c(=O)c1c23
[reply] active

[ask] # lookup: test call for CN(C)c1ccc2c(c1)C(=NO)c1ccccc1-2
[reply] active

[ask] # lookup: test call for N#Cc1ccc(C(=O)N2CCC3CC2c2cc(-c4ccccc4)ccc23)cc1 (stereo unspecified)
[reply] inactive

[ask] # lookup: test call for CCCc1ccc(C#N)c(SC2CC(=O)N(c3ccc(OC)cc3)C2=O)n1 (stereo unspecified)
[reply] inactive

[ask] # lookup: test call for COc1cc([C@H]2Oc3cc([C@H]4Oc5cc(O)cc(O)c5C(=O)[C@@H]4O)ccc3O[C@@H]2CO)ccc1O
[reply] inactive

[ask] # lookup: test call for O=[S+]([O-])([O-])c1ccc2c(c1)cc([S+](=O)([O-])[O-])c1nn(-c3ccc(/C=C/c4ccc(-n5nc6c([S+](=O)([O-])[O-])cc7cc([S+](=O)([O-])[O-])ccc7c6n5)cc4[S+](=O)([O-])[O-])c([S+](=O)([O-])[O-])c3)nc12
[reply] active

[ask] # lookup: test call for Cn1cccc1/C=N/N1CCN(Cc2cccc3ccccc23)CC1
[reply] active

[ask] # lookup: test call for O=C(Oc1ccc2c(c1)OCC2=O)c1ccccc1
[reply] active

[ask] # lookup: test call for CCCNC(=O)C1(C)CCN(Cc2cccc(OC(=O)c3ccccc3)c2)C1 (stereo unspecified)
[reply] inactive

[ask] # lookup: test call for CCN(Cc1cccc(S(=O)(=O)O)c1)c1ccc(C(=C2C=CC(=[N+](CC)Cc3cccc(S(=O)(=O)O)c3)C=C2)c2ccc(O)cc2S(=O)(=O)O)cc1
[reply] active

[ask] # lookup: test call for O=S(=O)(NCCSCc1ccc(Cl)c(Cl)c1)c1ccc2c(c1)OCCO2
[reply] inactive

[ask] # lookup: test call for Cc1cccc(C)c1Nc1c(-c2ccccn2)nc2ccccn12
[reply] active

[ask] # lookup: test call for O=C(COC(=O)c1cc(-c2cccnc2)nc2ccccc12)Nc1ccc(F)cc1F
[reply] inactive

[ask] # lookup: test call for CCCc1cc(=O)[nH]c(SCC(=O)Nc2ccc(C)cc2)n1
[reply] inactive

====

- TARGET_OF_ASSAY: Protein phosphatase EYA2 (Homo sapiens) (UniProt O00167)
- ASSAY_NOTES: qHTS for Inhibitors of the Phosphatase Activity of Eya2: Confirmatory Assay for Cherry-picked Compounds; further: nearly all actives have a fitted effect of over 65% in size
- CONDITION_DETAILS: purified EYA2 phosphatase activity, qHTS confirmation; series mostly up to 46.1 µM
Screen size: about 1,300 compounds; about 460 (35%) were called active. About 39% were inconclusive and are not listed. Calls come from the whole dose curve; as a rule, active = well fitted inhibition curve with a large enough effect; inconclusive = small, poorly fitted or top-dose-only effect; inactive = flat fitted curve, though single readings scatter. The list shows a part of the results.
Use one of these outcomes when replying: yes (1) = active, no (0) = inactive

[ask] # lookup: test call for Cc1ccccc1-c1cnc(C(O)c2c(C)cccc2C)[nH]1 (configuration not stated)
[reply] no (0)

[ask] # lookup: test call for O=C(NC1CCCC1)c1cc(=O)[nH]c2ccccc12
[reply] no (0)

[ask] # lookup: test call for Nc1ccc2nc3c(=O)[nH]c(=S)[nH]c3nc2c1
[reply] yes (1)

[ask] # lookup: test call for CC1CCC2C(=O)N(c3ccc(C(=O)Oc4cccc5cccnc45)cc3)C(=O)C2C1 (configuration not stated)
[reply] yes (1)

[ask] # lookup: test call for CCOC(=O)c1ccc(NC(=O)c2nc[nH]c2C(=O)N[C@@H](Cc2ccccc2)C(=O)OC(C)(C)C)cc1
[reply] no (0)

[ask] # lookup: test call for Cc1c(CC(=O)NCCCC(=O)O)c(=O)oc2cc3occ(-c4ccccc4)c3cc12
[reply] yes (1)

[ask] # lookup: test call for NNC(=O)c1nc[nH]c1C(=O)Nc1ccccn1
[reply] yes (1)
